meta.source: ChEMBL document CHEMBL3091444

- ASSAY PROTOCOL: Half life in Sprague-Dawley rat at 10 mg/kg, po
- Assay type: ADME, organism-based
- Parameters: dose 10 mg/kg, route oral
- TEST CONDITIONS: in vivo
ENDPOINT: half-life (h)

[[record]]
molecule = "Cc1c(N2CCCC2=O)cccc1S(=O)(=O)N[C@@H](CNC(=O)c1ccc(Cl)s1)C(=O)N1CCN(C)CC1.Cl"
units_of_measure = "h"
numeric_result = 6.2


* * *

- ASSAY PROTOCOL: Oral bioavailability in Sprague-Dawley rat at 10 mg/kg
- Format: ADME, organism-based
- TEST CONDITIONS: in vivo
ENDPOINT: bioavailability (%)

[[record]]
molecule = "Cc1c(N2CCCC2=O)cccc1S(=O)(=O)N[C@@H](CNC(=O)c1ccc(Cl)s1)C(=O)N1CCN(C)CC1.Cl"
units_of_measure = "%"
numeric_result = 21

